# target_of_assay: NAD-dependent protein deacetylase sirtuin-1 (Homo sapiens)
# protocol_details: Inhibition of human SIRT1 assessed as enzyme activity using Fluor-de-Lys as substrate at 1 mM by fluorometry
# Design: scale not given: the % may be the effect or the level left
Collected Activity values appear next to each entry.
Your answer should be a plain number; it is taken to be in %.

Tell me reported Activity for NC(=O)/C=C/c1cccnc1 , tested with NAD-dependent protein deacetylase sirtuin-1 (Homo sapiens).
99

Continue with Cc1ccncc1C(N)=O
105

Next:
I'm curious: which Activity was measured for c1cncc(-c2cnn[nH]2)c1 tested on NAD-dependent protein deacetylase sirtuin-1 (Homo sapiens)?
88

What do you have for O=C1NCc2ncccc21 ?
88

And then O=C1NCCc2ncccc21 , what is it?
86

Please answer likewise for NS(=O)(=O)c1cccnc1
108

And the next one, c1cncc(-n2ccnn2)c1 ?
97
